# Tested on: Plasmodium falciparum Sir2 (PF13_0152, Sir2A)
# protocolText: pfSir2 binders on small-molecule microarrays, primary screen, biochemical, small-molecule microarray, 635 nm fluorescence (AID 1098);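 further: score merges spot fluorescence intensity with its signal-to-noise ratio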
# conditionSet: small-molecule microarray binding, fluorescence 635 nm; higher = more signal
measuredQuantity: composite z-score
Answer using only a numeral; do not append any unit.

>>> obsvalue("O=C1O[C@@H](c2ccccc2)[C@@H](c2ccccc2)N2[C@@H](c3ccc(O)cc3)[C@]3(C(=O)Nc4ccccc43)[C@@H](C(=O)N3CCN(c4ncccn4)CC3)[C@H]12")
1.13

The recorded composite z-score for "C=CC[C@]1(C(=O)O)N=C(c2ccc(OCCCO)cc2)O[C@H]1c1ccccc1N=[N+]=[N-]" is 1.75

The recorded composite z-score for C#CCNC(/C=C/c1ccccc1)CO (centres undefined) is 0.0921

The recorded composite z-score for "CCN1C(C)=C(C(=O)OC)[C@@H](c2ccccc2)N2C(=O)[C@@]3(C(=O)OC)O[C@@]12[C@@H]1C(=O)N(C)C(=O)[C@@H]13" is 0.736
